The measurements presented in this section are drawn from the supplement of paper PMC11246515.

- test-method-notes: total protein half-life in vivo (active degradation + dilution); higher = more stable protein
- particulars: E. coli NCM3722 delta-clpP; growth: N-lim chemostat; doubling time 6 h
observable: total protein half-life in vivo
Please provide the amount together with its unit, number first.

MSDQQQPPVYKIALGIEYDGSKYYGWQRQNEVRSVQEKLEKALSQVANEPITVFCAGRTDAGVHGTGQVVHFETTALRKDAAWTLGVNANLPGDIAVRWVKTVPDDFHARFSATARRYRYIIYNHRLRPAVLSKGVTHFYEPLDAERMHRAAQCLLGENDFTSFRAVQCQSRTPWRNVMHINVTRHGPYVVVDIKANAFVHHMVRNIVGSLMEVGAHNQPESWIAELLAAKDRTLAAATAKAEGLYLVAVDYPDRYDLPKPPMGPLFLAD | 4.85 h

Next:
Prompt: Can you share its total protein half-life in vivo? I mean this sequence: MTIKNKMLLGALLLVTSAAWAAPATAGSTNTSGISKYELSSFIADFKHFKPGDTVPEMYRTDEYNIKQWQLRNLPAPDAGTHWTYMGGAYVLISDTDGKIIKAYDGEIFYHR
Response: 5.97 h

----------
- test-method-notes: total protein half-life in vivo (active degradation + dilution); higher = more stable protein
- particulars: wild type E. coli NCM3722; growth: C-lim chemostat; doubling time 6 h
Threshold rule: total protein half-life in vivo greater than or equal to 5 h is 1 (yes); below that, 0 (no).

MTQGAVKTTGKRSRAVSAKKKAILSAALDTFSQFGFHGTRLEQIAELAGVSKTNLLYYFPSKEALYIAVLRQILDIWLAPLKAFREDFAPLAAIKEYIRLKLEVSRDYPQASRLFCMEMLAGAPLLMDELTGDLKALIDEKSALIAGWVKSGKLAPIDPQHLIFMIWASTQHYADFAPQVEAVTGATLRDEVFFNQTVENVQRIIIEGIRPR [P0ACU2] | 1 (yes)
MARIIVVTSGKGGVGKTTSSAAIATGLAQKGKKTVVIDFDIGLRNLDLIMGCERRVVYDFVNVIQGDATLNQALIKDKRTENLYILPASQTRDKDALTREGVAKVLDDLKAMDFEFIVCDSPAGIETGALMALYFADEAIITTNPEVSSVRDSDRILGILASKSRRAENGEEPIKEHLLLTRYNPGRVSRGDMLSMEDVLEILRIKLVGVIPEDQSVLRASNQGEPVILDINADAGKAYADTVERLLGEERPFRFIEEEKKGFLKRLFGG [P0AEZ3] | 1 (yes)
MLCVKNVSLRLPESRLLTNVNFTVDKGDIVTLMGPSGCGKSTLFSWMIGALAEQFSCTGELWLNEQRIDILPTAQRQIGILFQDALLFDQFSVGQNLLLALPATLKGNARRNAVNDALERSGLEGAFHQDPATLSGGQRARVALLRALLAQPKALLLDEPFSRLDVALRDNFRQWVFSEVRALAIPVVQVTHDLQDVPADSSVLDMAQWSENYNKLR | 1 (yes)
MSLVTDLPAIFDQFSEARQTGFLTVMDLKERGIPLVGTYCTFMPQEIPMAAGAVVVSLCSTSDETIEEAEKDLPRNLCPLIKSSYGFGKTDKCPYFYFSDLVVGETTCDGKKKMYEYMAEFKPVHVMQLPNSVKDDASRALWKAEMLRLQKTVEERFGHEISEDALRDAIALKNRERRALANFYHLGQLNPPALSGSDILKVVYGATFRFDKEALINELDAMTARVRQQWEEGQRLDPRPRILITGCPIGGAAEKVVRAIEENGGWVVGYENCTGAKATEQCVAETGDVYDALADKYLAIGCSCVSPNDQRLKMLSQMVEEYQVDGVVDVILQACHTYAVESLAIKRHVRQQHNIPYIAIETDYSTSDVGQLSTRVAAFIEML | 0 (no)
MARINRISITLCALLFTTLPLTPMAHASKQARESSATTHITKKADKKKSTATTKKTQKTAKKAASKSTTKSKTASSVKKSSITASKNAKTRSKHAVNKTASASFTEKCTKRKGYKSHCVKVKNAASGTLADAHKAKVQKATKVAMNKLMQQIGKPYRWGGSSPRTGFDCSGLVYYAYKDLVKIRIPRTANEMYHLRDAAPIERSELKNGDLVFFRTQGRGTADHVGVYVGNGKFIQSPRTGQEIQITSLSEDYWQRHYVGARRVMTPKTLR | 1 (yes)

Prompt: Say whether MPSFDIVSEVDLQEARNAVDNASREVESRFDFRNVEASFELNDASKTIKVLSESDFQVNQLLDILRAKLLKRGIEGSSLDVPENIVHSGKTWFVEAKLKQGIESATQKKIVKMIKDSKLKVQAQIQGDEIRVTGKSRDDLQAVMAMVRGGDLGQPFQFKNFRD [P0A8E7] shows total protein half-life in vivo of 5 h or more.
Response: 1 (yes)

----------
- test-method-notes: total protein half-life in vivo (active degradation + dilution); higher = more stable protein
- particulars: E. coli NCM3722 delta-lon; growth: N-lim chemostat; doubling time 6 h
Cut-off 6 h on total protein half-life in vivo, inclusive. At or above means true; below means false.

Illustrative cases are given below, each with its answer.
MIQSQINRNIRLDLADAILLSKAKKDLSFAEIADGTGLAEAFVTAALLGQQALPADAARLVGAKLDLDEDSILLLQMIPLRGCIDDRIPTDPTMYRFYEMLQVYGTTLKALVHEKFGDGIISAINFKLDVKKVADPEGGERAVITLDGKYLPTKPF | false
MADITLISGSTLGGAEYVAEHLAEKLEEAGFTTETLHGPLLEDLPASGIWLVISSTHGAGDIPDNLSPFYEALQEQKPDLSAVRFGAIGIGSREYDTFCGAIDKLEAELKNSGAKQTGETLKINILDHDIPEDPAEEWLGSWVNLLK | false
MLELLFLLLPVAAAYGWYMGRRSAQQNKQDEANRLSRDYVAGVNFLLSNQQDKAVDLFLDMLKEDTGTVEAHLTLGNLFRSRGEVDRAIRIHQTLMESASLTYEQRLLAIQQLGRDYMAAGLYDRAEDMFNQLTDETDFRIGALQQLLQIYQATSEWQKAIDVAERLVKLGKDKQRVEIAHFYCELALQHMASDDLDRAMTLLKKGAAADKNSARVSIMMGRVFMAKGEYAKAVESLQRVISQDRELVSETLEMLQTCYQQLGKTAEWAEFLQRAVEENTGADAELMLADIIEARDGSEAAQVYITRQLQRHPTMRVFHKLMDYHLNEAEEGRAKESLMVLRDMVGEKVRSKPRYRCQKCGFTAYTLYWHCPSCRAWSTIKPIRGLDGL [P0AB58] | true
MERFDAIIIGAGAAGMFCSALAGQAGRRVLLIDNGKKPGRKILMSGGGRCNFTNLYVEPGAYLSQNPHFCKSALARFTQWDFIDLVNKHGIAWHEKTLGQLFCDDSAQQIVDMLVDECEKGNVTFRLRSEVLSVAKDETGFTLDLNGMTVGCEKLVIATGGLSMPGLGASPFGYKIAEQFGLNVLPTRAGLVPFTLHKPLLEELQVLAGVAVPSVITAENGTVFRENLLFTHRGLSGPAVLQISSYWQPGEFVSINLLPDVDLETFLNEQRNAHPNQSLKNTLAVHLPKRLVERLQQLGQIPDVSLKQLNVRDQQALISTLTDWRVQPNGTEGYRTAEVTLGGVDTNELSSRTMEARKVPGLYFIGEVMDVTGWLGGYNFQWAWSSAWACAQDLIAAKSS | false

Kindly consider the entry below.
Prompt: Entry MSKTFARSSLCALSMTIMTAHAAEPPTNLDKPEGRLDIIAWPGYIERGQTDKQYDWVTQFEKETGCAVNVKTAATSDEMVSLMTKGGYDLVTASGDASLRLIMGKRVQPINTALIPNWKTLDPRVVKGDWFNVGGKVYGTPYQWGPNLLMYNTKTFPTPPDSWQVVFVEQNLPDGKSNKGRVQAYDGPIYIADAALFVKATQPQLGISDPYQLTEEQYQAVLKVLRAQHSLIHRYWHDTTVQMSDFKNEGVVASSAWPYQANALKAEGQPVATVFPKEGVTGWADTTMLHSEAKHPVCAYKWMNWSLTPKVQGDVAAWFGSLPVVPEGCKASPLLGEKGCETNGFNYFDKIAFWKTPIAEGGKFVPYSRWTQDYIAIMGGR : is its total protein half-life in vivo no less than 6 h?
Response: true

----------
- test-method-notes: total protein half-life in vivo (active degradation + dilution); higher = more stable protein
- particulars: E. coli NCM3722 delta-hslV; growth: N-lim chemostat; doubling time 6 h
// total protein half-life in vivo lookup, one value per entry
Express your answer in h, writing the number without its unit.

The examples below pair each entry with its known result.
MQLNITGNNVEITEALREFVTAKFAKLEQYFDRINQVYVVLKVEKVTHTSDATLHVNGGEIHASAEGQDMYAAIDGLIDKLARQLTKHKDKLKQH [P0AFX0] | 3.49
MSAVLTAEQALKLVGEMFVYHMPFNRALGMELERYEKEFAQLAFKNQPMMVGNWAQSILHGGVIASALDVAAGLVCVGSTLTRHETISEDELRQRLSRMGTIDLRVDYLRPGRGERFTATSSLLRAGNKVAVARVELHNEEQLYIASATATYMVG [P0ADP2] | 2.36

Prompt: What value of total protein half-life in vivo has been reported for the following sequence? MIKSALLVLEDGTQFHGRAIGATGSAVGEVVFNTSMTGYQEILTDPSYSRQIVTLTYPHIGNVGTNDADEESSQVHAQGLVIRDLPLIASNFRNTEDLSSYLKRHNIVAIADIDTRKLTRLLREKGAQNGCIIAGDNPDAALALEKARAFPGLNGMDLAKEVTTAEAYSWTQGSWTLTGGLPEAKKEDELPFHVVAYDFGAKRNILRMLVDRGCRLTIVPAQTSAEDVLKMNPDGIFLSNGPGDPAPCDYAITAIQKFLETDIPVFGICLGHQLLALASGAKTVKMKFGHHGGNHPVKDVEKNVVMITAQNHGFAVDEATLPANLRVTHKSLFDGTLQGIHRTDKPAFSFQGHPEASPGPHDAAPLFDHFIELIEQYRKTAK [P0A6F1]
Response: 4.72
